- TESTED ON: T1, human IL-23R endogenously expressed on DB cells (human, UniProt Q5VWK5 24-629)
- T1 sequence (looked up): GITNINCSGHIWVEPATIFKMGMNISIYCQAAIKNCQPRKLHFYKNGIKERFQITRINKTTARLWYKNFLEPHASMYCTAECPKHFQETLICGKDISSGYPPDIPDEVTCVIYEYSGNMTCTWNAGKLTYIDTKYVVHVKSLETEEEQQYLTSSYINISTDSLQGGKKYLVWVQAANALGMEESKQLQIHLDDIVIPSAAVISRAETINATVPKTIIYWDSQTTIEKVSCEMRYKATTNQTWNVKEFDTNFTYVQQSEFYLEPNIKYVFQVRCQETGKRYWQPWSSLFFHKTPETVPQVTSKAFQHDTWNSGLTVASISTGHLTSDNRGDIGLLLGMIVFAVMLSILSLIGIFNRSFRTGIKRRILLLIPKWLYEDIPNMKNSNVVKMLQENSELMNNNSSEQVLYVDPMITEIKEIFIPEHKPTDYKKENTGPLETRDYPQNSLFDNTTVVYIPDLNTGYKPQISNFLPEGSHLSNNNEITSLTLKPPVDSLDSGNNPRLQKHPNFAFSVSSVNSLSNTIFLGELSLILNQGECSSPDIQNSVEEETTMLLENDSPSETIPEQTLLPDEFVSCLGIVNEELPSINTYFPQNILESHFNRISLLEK
- EXPERIMENT NOTES: cell-based or functional assay
*1 amine or outer side, *2 acyl side, *3 side chain or, on linkers, in order; H or OH if unused. Bridges are numbered along the chain shown (N, C = ends). [ ]: non-standard residue; d: D form. 4‑Aminomethyl‑phenylacetyl = 4-aminomethyl-phenylacetyl unit, its amine closes the lactam, O=C(Cc1ccc(CN[*:1])cc1)[*:2]; 2Nal = N[C@@H](Cc1ccc2ccccc2c1)C(=O)O; AEF = NCCOc1ccc(C[C@H](N)C(=O)O)cc1; 3Pal = N[C@@H](Cc1cccnc1)C(=O)O; αMeL = CC(C)C[C@](C)(N)C(=O)O; Dab = NCC[C@H](N)C(=O)O
MEASURED PROPERTY: hIL-23 (pSTAT3) antagonist % inhibition
Provide a numeric answer, followed by its unit.

Request: Data request, read-out hIL-23 (pSTAT3) antagonist % inhibition, for Ac-KSCWQCW[2Nal]LER-NH2 (lactam 1-10; bridge 3-6; not fully specified (bridges); printed as [Ac]-K(1c)SC(2a)WQC(2a)W[2-Nal]LE(1c)R-[NH2]) [Ref 18]
Result: 97%

Request: Same read-out for [4‑Aminomethyl‑phenylacetyl]AEWQ[Dab][AEF][2Nal][αMeL]E[Dab][3Pal]-NHMe (lactam N-10, 3-6; SMILES CNC(=O)[C@H](Cc1cccnc1)NC(=O)[C@H](CCN)NC(=O)[C@@H]1CCC(=O)NCc2ccc(cc2)CC(=O)N[C@@H](C)C(=O)N[C@H]2CCC(=O)NCC[C@H](NC(=O)[C@H](CCC(N)=O)NC(=O)[C@H](Cc3c[nH]c4ccccc34)NC2=O)C(=O)N[C@@H](Cc2ccc(OCCN)cc2)C(=O)N[C@@H](Cc2ccc3ccccc3c2)C(=O)N[C@@](C)(CC(C)C)C(=O)N1) [Compound 20] ?
Result: 101%
